Taken from the RNAGym collection of RNA variant scans (doi:10.1126/science.aae0568).

B1: tRNA (parent)
chain: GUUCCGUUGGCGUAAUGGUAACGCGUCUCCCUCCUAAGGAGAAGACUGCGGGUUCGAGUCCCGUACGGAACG

Variants of: B1
Test: yeast fitness relative to wild type (ratio to wild type); higher = fitter; tRNA-Arg(CCU), competitive growth, 37 C, YPD
Fewer inactive variants are shown than the library holds.
Hi there, I'd appreciate the recorded yeast fitness for every entry that follows.

Field: example entries. Status: answers known.
| mutation_id | yeast fitness |
| --- | --- |
| A14G A42G C46G A57G | ≤ 0.5 |
| C11G C49A A57U U64A G67U | ≤ 0.5 |
| G10C C49A | ≤ 0.5 |

Could you tell me yeast fitness for each of these variants? They are listed below.
1. G25A C31G C55G
2. U8A U28A C31G C60A
3. A20C G52A G68A

1. ≤ 0.5
2. ≤ 0.5
3. ≤ 0.5

Could you tell me yeast fitness for each of these variants? They are listed below.
1. G9A C24U C30U U32G A65C C66G
2. U35A A40U C46G U53A
3. C29A C30A G50A
4. C11A C34G G67A
5. G6A C55U G58A G67A
6. C27A A36G A43G C55U C60U

["≤ 0.5", "≤ 0.5", "≤ 0.5", "≤ 0.5", "≤ 0.5", "≤ 0.5"]
